Please go through the items and note down their protein stability index.
B1: MFF (parent)
chain: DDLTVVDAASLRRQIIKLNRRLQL

Variants of: B1
assay_explanation: protein stability index of a GFP-peptide fusion (GPS, HEK-293T) (PSI 1-6); higher = more stable;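 also: lentivirally expressed fusions sorted by FACS into six bins by GFP to DsRed ratio, PSI derived from sequencing read proportions per bin multiplied by bin number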
stated_conditions: c terminus: a fixed tail appended
Numbers only.

Use these answered entries as a reference point.
variant_descriptor	reported_measurement
A8Q	2.38
A8G	3.13
L24D	2.77
V5D	2.37
I15A	2.43
V6L	2.37

Return reported protein stability index values for all items listed beneath this line.
1. I15D
2. R21Y
3. L3K
4. D2S
5. T4R

[out]
1: 3.96; 2: 1.94; 3: 2.34; 4: 2.24; 5: 2.18

Return reported protein stability index values for all items listed beneath this line.
1. R12N
2. N19H
3. R21L
4. L24K
5. L22T
6. T4D

[out]
1. 2.42
2. 1.75
3. 1.33
4. 2.99
5. 2.62
6. 2.6
